// provenance: patent US20180162952A1

Molecular target: T1, hPTK7-His (soluble His-tagged human PTK7 extracellular domain) (human, UniProt Q13308 31-704)
T1 construct: also called PTK7-ECD-His; monomeric recombinant hPTK7-His (isoform a)
T1 sequence: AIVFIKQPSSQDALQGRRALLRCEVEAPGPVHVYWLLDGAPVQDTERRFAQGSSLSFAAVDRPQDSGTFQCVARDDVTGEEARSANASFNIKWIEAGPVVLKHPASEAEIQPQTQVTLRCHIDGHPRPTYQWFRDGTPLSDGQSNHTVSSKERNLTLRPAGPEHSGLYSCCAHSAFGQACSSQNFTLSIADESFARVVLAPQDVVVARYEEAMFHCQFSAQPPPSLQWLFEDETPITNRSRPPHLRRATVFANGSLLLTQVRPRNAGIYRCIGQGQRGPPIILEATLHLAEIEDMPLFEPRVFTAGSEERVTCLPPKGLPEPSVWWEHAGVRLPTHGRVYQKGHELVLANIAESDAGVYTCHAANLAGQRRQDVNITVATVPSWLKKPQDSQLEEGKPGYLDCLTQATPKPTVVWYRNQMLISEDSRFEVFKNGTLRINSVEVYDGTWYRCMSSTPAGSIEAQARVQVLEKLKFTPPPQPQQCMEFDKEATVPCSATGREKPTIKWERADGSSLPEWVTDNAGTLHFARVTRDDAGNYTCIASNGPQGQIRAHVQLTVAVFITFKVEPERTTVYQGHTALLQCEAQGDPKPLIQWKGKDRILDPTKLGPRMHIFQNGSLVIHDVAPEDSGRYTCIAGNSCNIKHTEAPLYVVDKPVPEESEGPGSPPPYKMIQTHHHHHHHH
Experiment: Biacore (superscript B); column Affinity (nM)
endpointName: Kd

Q: I am curious: what Kd value has been reported for SC6.58 (antibody, V domains shown, Murine monoclonal antibody, kappa light chain) VH: EVKLLESGGGLVQPGGSLKLSCAASGFDFSRYWMSWVRQAPGKGLEWIGDLNPDSSAINYTPSLKDKFIISRDNAKNTLYLQMSKVRSEDTALYYCTLITTLVPYTMDFWGQGTSVTVSS VL: ETTVTQSPASLSMAIGEKVTIRCITNTDIDDDMNWYQQKPGEPPKLLISEGNGLRPGVPSRFSSSGYGTDFVFTIENMLSEDVADYYCLQSDNLPLTFGSGTKLEIK ?
Ans: 0.5 nM

Q: I am curious: what Kd value has been reported for SC6.24 (antibody, V domains shown, Murine monoclonal antibody, kappa light chain) VH: QVQLQQSGPEVVRPGVSVKISCKGSGYTFTDYAVHWVKLSHAKSLEWIGVISTYNDYTYNNQDFKGKATMTVDKSSSTAYMELARLTSEDSAIYYCARGNSYFYALDYWGQGTSVTVSS VL: DIVLTQSPASLAVSLGQRATISCRASESVDSYGKSFMHWYQQRPGQPPKLLIYRASNLESGIPARFSGSGSRTDFTLTINPVEADDVATYYCQQSNEDPWTFGGGTKLEIK ?
Ans: 0.6 nM

Q: I am curious: what Kd value has been reported for SC6.41 (antibody, V domains shown, Murine monoclonal antibody, kappa light chain) VH: EVQLQQSGAESVRSGASVKLSCTASGLNIKDYYMHWVNLRPEQGLEWIGWIDPENGDTEYAPEFQGKATMTADTSSNTAYLQLSSLTSEDTAVYYCNACNYGSAYGYWGQGTTLTVSS VL: DIVLTQATPSVPVTPGESVSISCRSSKSLLHTKGDTYLYWFLQRPGQSPQLLIYRMSNLASGVPDRFSGSGSGTVFTLRISRVEAEDVGVYYCMQHLEYPFTFGSGTKLEIKR ?
Ans: 1 nM

Q: I am curious: what Kd value has been reported for SC6.10.2 (antibody, V domains shown, Murine monoclonal antibody from a hybridoma; also called H10.2; H10) VH: QVQLQQSGAELVRPGVSVKISCKGSGYRFTDYPIHWVKQSHAKSLEWIGIISTYYGDVTNNPKFRGKATMTVDKSSTTAYMELARLTSEDSAIYYCARNDLFAYWGQGTLVTVSA VL: DIVMTQSQKFMSTSVGDRVNVTCKASQNVGTNVVWYQQKTGQSPKALIHSASYRYSGVPDRFTGSGSGTDFTLTLSNVQSEDLAEYFCQHYNSFPYTFGGGTKLEIKR ?
Ans: 5.6 nM
